TARGET_OR_TEST_SYSTEM: T1, control peptide A2E-15/HLA-A*02:01 complex on T2 cells (member of the P19 mixture) (human)
T1 construct: Loaded on T2 cells as part of the mixture of 19 control peptides
RUN_DESCRIPTION: flow cytometry, phage on T2 cells
MEASURED_PARAMETER: binding result

BINDER	MEASURED_VALUE
PSA146/HLA-A*02:01-specific scFv phage clone #12 (scFv, V domains shown) VH: QMQLVQSGSEVKKPGASVKVSCKASGYTFTSYGISWVRQAPGQGLEWMGWISAYNGNTDYVQKLQGRVTMTTDTSTNTAYMELGSLGSDDTAVYYCARTNYNKYDIWGQGTLVTVSS VL: QSVLTQPPSVSGAPGQRVTISCTGSSSNIGAGYDVHWYQQLPGTAPKLLIYGNSNRPSGVPDRFSGSKSGTSASLAITGLQAEDEADYYCQSYDSSLSEVFGTGTKVTVLG	no binding
PSA146/HLA-A*02:01-specific scFv phage clone #6 (scFv, V domains shown) VH: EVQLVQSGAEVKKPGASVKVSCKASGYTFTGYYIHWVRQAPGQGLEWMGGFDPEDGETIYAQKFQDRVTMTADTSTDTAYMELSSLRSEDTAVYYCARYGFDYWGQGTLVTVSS VL: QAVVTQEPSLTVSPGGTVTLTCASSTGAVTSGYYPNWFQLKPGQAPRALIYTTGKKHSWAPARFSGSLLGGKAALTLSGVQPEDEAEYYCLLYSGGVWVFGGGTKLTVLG	no binding
PSA146/HLA-A*02:01-specific scFv phage clone #18 (scFv, V domains shown) VH: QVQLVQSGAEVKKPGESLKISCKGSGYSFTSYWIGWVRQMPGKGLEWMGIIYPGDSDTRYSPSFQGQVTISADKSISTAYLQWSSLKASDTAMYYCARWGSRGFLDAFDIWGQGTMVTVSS VL: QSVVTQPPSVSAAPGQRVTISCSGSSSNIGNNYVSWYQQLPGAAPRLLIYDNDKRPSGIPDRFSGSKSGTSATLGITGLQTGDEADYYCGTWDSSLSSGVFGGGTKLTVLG	no binding
